System: Cryptococcus neoformans
Details: Concentration 20 uM; ASSAY_TEST Inhibition of Fungal Growth; detection method Resazurin; Absorption (OD600-OD570); plate type 384well; NBS; CORNING #3640
Description: Antifungal activity against Cryptococcus neoformans H99 ATCC 208821 (CO-ADD:FG_002); MIC in YNB media using NBS plates, by Resazurin OD(600-570)
Measured potencies and affinities stand elsewhere.
VALUE_TYPE: Inhibition (%)
Write the answer as a number in %, unit excluded.

- CC1(C)OB(O)c2ccc(C3=NOC(c4cc(Cl)c(F)c(Cl)c4)(C(F)(F)F)C3)cc21 (centres undefined): -7.16
- CC(=O)Oc1ccccc1C(=O)Nc1ncc([N+](=O)[O-])s1 [NITAZOXANIDE]: 17.15
- CNCCC(Oc1ccc(C(F)(F)F)cc1)c1ccccc1 (centres undefined): 2.51
- Cc1cc(C2=NOC(c3cc(Cl)c(F)c(Cl)c3)(C(F)(F)F)C2)ccc1C(=O)NCc1ccc2c(c1)C(C)(C)OB2O (centres undefined): -8.68
- CO[C@@H](C(=O)N1Cc2[nH]nc(NC(=O)c3ccc(N4CCN(C)CC4)cc3)c2C1)c1ccccc1: -4

As a next step, examine the molecule that follows.
Inhibition lookup needed for Cc1nn(Cc2ccccc2)c(Cl)c1C(=O)NC1CCCCCC1 , thanks.
-4.17

---

Test system: Klebsiella pneumoniae
Conditions: Concentration 20 uM; ASSAY_TEST Inhibition of Bacterial Growth; detection method Absorption (OD600); MEDIA CAMHB; plate type 384well; NBS; CORNING #3640; time 18 hr
Description: Antibacterial activity against Klebsiella pneumoniae MDR ATCC 70063 (CO-ADD:GN_003); MIC in CAMBH media using NBS plates, by OD(600)
Results with a measured potency or affinity are listed apart.
# Inhibition >= 4% gives class 1, anything below gives class 0

Recorded results for 7 compounds are shown here.
* CC1(C)OB(O)c2ccc(C3=NOC(c4cc(Cl)c(F)c(Cl)c4)(C(F)(F)F)C3)cc21 (stereo not drawn) | class 1
* CNCCC(Oc1ccc(C(F)(F)F)cc1)c1ccccc1 (stereo not drawn) [FLUOXETINE] | class 1
* Cc1nn(Cc2ccccc2)c(Cl)c1C(=O)NC1CCCCCC1 | class 0
* Cc1nn(C)c(C)c1NS(=O)(=O)c1c(Cl)cc(-c2ccnc(N3CCNCC3)c2)cc1Cl | class 1
* Nc1c2c(nc3sc4c(c13)CCCC4)CCCC2 | class 0
* CC(=O)Oc1ccccc1C(=O)Nc1ncc([N+](=O)[O-])s1 [NITAZOXANIDE] | class 1
* CO[C@@H]1CN(c2ccc(C#CC3(O)CN4CCC3CC4)c(Cc3ccccc3)n2)C[C@H]1O (stereo partly drawn) | class 0

Now consider the entry below.
Item Cc1cc(C2=NOC(c3cc(Cl)c(F)c(Cl)c3)(C(F)(F)F)C2)ccc1C(=O)NCc1ccc2c(c1)C(C)(C)OB2O (stereo not drawn) with Inhibition of 4% or above?
class 1

---

Tested on: Candida albicans
Conditions: 20 µM
Description: Antifungal activity against Candida albicans ATCC 90028 (CO-ADD:FG_001); MIC in YNB media using NBS plates, by OD630
Potency and affinity values are given separately.
VALUE_TYPE: Inhibition (%)
Write the value in % as a bare number.

Take a look at these entries with their results.
* Nc1c2c(nc3sc4c(c13)CCCC4)CCCC2 | 0.42
* CO[C@@H](C(=O)N1Cc2[nH]nc(NC(=O)c3ccc(N4CCN(C)CC4)cc3)c2C1)c1ccccc1 | 3.17
* CC1(C)OB(O)c2ccc(C3=NOC(c4cc(Cl)c(F)c(Cl)c4)(C(F)(F)F)C3)cc21 (stereo not given) | 3.03
* Cc1nn(Cc2ccccc2)c(Cl)c1C(=O)NC1CCCCCC1 | 5.99

Please examine the following record next.
Inhibition for Cc1nn(C)c(C)c1NS(=O)(=O)c1c(Cl)cc(-c2ccnc(N3CCNCC3)c2)cc1Cl ?
6.45
